Where these numbers come from: a melting point compilation (Tetko et al.)

test-readout: melting point

> print(dat)
                                    molecule   test.readout  measured.value
 1   O=C(O)CN1C(=O)COc2ccc([N+](=O)[O-])cc21  melting point   200 to 202 °C
 2                      NC(=O)CCOc1cccc(F)c1  melting point     94 to 96 °C
 3              CN1CCCN(c2nc3ccccc3cc2CO)CC1  melting point     95 to 97 °C
 4  O=C(CCl)NC1CCC(C(F)(F)F)CC1 (stereo not drawn)  melting point     65 to 67 °C
 5          CC(=O)N(c1ccc(F)cc1)c1nc(CCl)cs1  melting point   127 to 129 °C
 6   CC(Br)c1ccc2ccccc2c1 (stereo not drawn)  melting point     62 to 64 °C
 7                   N#Cc1n[nH]c2ccc(Cl)cc12  melting point   210 to 212 °C
 8      CCC(O)c1ccc(O)cc1 (stereo not drawn)  melting point     81 to 83 °C
 9                CCOC(=O)c1sc(N)c(C#N)c1CBr  melting point   206 to 208 °C
10                 O=C(CBr)c1cc2cc(Cl)ccc2o1  melting point   168 to 170 °C
11                     COC(=O)c1cc(Br)c(N)s1  melting point     88 to 90 °C
12      CC(C)(C)NC(=O)N1CCCc2c(C(=O)O)cccc21  melting point   134 to 136 °C
13     CCn1c(CCC(=O)O)nc2cc(S(N)(=O)=O)ccc21  melting point   263 to 265 °C
